The measurements presented in this section are drawn from patent US20200339680A1.

biological target: T1, human TMEM106B (human, UniProt Q9NUM4 2-274); assay: FACS HeLa
T1 construct: full-length, transiently expressed on HEK293 cells, or natively expressed on HeLa, U251 and A549 cells (the cell is named under assay); also the source of the Pepscan peptides; also called huTMEM106B; huTMEM
reported_property: MFI (MFI)
Report only the number, with the unit MFI understood.

{"columns": ["binder", "reported_property", "observed_value"],
 "data": [
  ["TM-27 (antibody, V domains shown) VH: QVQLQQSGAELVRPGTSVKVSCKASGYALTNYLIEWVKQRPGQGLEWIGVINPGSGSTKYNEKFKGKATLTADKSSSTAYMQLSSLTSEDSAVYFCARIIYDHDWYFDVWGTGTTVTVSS VL: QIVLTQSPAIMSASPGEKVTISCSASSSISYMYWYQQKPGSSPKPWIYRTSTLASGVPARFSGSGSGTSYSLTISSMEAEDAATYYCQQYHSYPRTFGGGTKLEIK", "MFI", 2960],
  ["TM-11 (antibody, V domains shown) VH: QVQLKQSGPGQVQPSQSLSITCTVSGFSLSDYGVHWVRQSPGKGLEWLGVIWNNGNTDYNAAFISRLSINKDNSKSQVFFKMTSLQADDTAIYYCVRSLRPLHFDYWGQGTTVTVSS VL: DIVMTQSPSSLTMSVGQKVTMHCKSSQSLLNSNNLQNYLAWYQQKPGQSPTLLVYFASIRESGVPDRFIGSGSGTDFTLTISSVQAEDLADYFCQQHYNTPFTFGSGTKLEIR", "MFI", 1870]
]}

May I ask what MFI has been recorded for TM-3 (antibody, V domains shown) VH: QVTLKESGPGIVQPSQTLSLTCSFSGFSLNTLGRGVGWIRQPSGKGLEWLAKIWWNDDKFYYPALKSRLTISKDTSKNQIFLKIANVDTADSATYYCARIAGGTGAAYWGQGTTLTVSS VL: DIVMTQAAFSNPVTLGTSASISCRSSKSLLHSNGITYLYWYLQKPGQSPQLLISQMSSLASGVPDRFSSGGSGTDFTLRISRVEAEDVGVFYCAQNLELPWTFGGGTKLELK ? 2690

Could you share which MFI value was measured for TM-1 (antibody, V domains shown) VH: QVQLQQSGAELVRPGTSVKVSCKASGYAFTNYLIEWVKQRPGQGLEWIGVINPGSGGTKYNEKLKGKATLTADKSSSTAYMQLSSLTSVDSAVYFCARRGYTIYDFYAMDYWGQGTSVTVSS VL: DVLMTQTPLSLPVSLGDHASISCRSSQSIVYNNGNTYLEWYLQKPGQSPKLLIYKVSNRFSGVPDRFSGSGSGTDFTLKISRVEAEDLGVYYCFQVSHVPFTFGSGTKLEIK ? 253

Form field: reported MFI of TM-50 (antibody, V domains shown, mouse IgG (hybridoma)) VH: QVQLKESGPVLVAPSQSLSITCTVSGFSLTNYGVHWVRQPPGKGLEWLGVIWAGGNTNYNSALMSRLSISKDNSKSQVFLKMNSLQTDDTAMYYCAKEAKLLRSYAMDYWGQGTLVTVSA VL: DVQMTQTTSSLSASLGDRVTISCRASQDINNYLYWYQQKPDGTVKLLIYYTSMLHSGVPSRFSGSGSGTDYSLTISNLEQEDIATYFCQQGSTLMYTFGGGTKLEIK 159
